Target: Cyclin-dependent kinase 4 (Homo sapiens)
Sequence (P11802 whole entry): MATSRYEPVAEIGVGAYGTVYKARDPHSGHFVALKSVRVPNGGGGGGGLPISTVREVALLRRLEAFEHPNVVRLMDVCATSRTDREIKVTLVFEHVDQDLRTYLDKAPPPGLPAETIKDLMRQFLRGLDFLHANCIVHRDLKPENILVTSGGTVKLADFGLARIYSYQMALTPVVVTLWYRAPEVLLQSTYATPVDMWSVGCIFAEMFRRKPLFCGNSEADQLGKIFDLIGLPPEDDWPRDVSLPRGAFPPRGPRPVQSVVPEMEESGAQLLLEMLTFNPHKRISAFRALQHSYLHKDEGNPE
pKi: −log10 of the molar value.
molecules and their reported pKi
RESULT TYPE: pKi

[
  {
    "MOLECULE": "CNS(=O)(=O)c1cccc(Nc2nccc(-c3sc(N)nc3C)n2)c1 [CDK Inhibitor, 5]",
    "SYSTEM UNDER TEST": "Cyclin-dependent kinase 4 (Homo sapiens)",
    "RESULT TYPE": "pKi",
    "REPORTED RESULT": 6.79
  },
  {
    "MOLECULE": "CCNc1nc(C)c(-c2ccnc(Nc3cccc(S(N)(=O)=O)c3)n2)s1 [CDK Inhibitor, 2]",
    "SYSTEM UNDER TEST": "Cyclin-dependent kinase 4 (Homo sapiens)",
    "RESULT TYPE": "pKi",
    "REPORTED RESULT": 6.88
  },
  {
    "MOLECULE": "CNc1nc(C)c(-c2ccnc(Nc3cccc(S(N)(=O)=O)c3)n2)s1 [CDK Inhibitor, 3]",
    "SYSTEM UNDER TEST": "Cyclin-dependent kinase 4 (Homo sapiens)",
    "RESULT TYPE": "pKi",
    "REPORTED RESULT": 8.04
  },
  {
    "MOLECULE": "Cc1ccc(Nc2nccc(-c3sc(=O)n(C)c3C)n2)cc1[N+](=O)[O-] [CDK Inhibitor, 13]",
    "SYSTEM UNDER TEST": "Cyclin-dependent kinase 4 (Homo sapiens)",
    "RESULT TYPE": "pKi",
    "REPORTED RESULT": 7.22
  }
]
